methodSummary: protein stability index of a GFP-peptide fusion (yeast GPS) (PSI 1-4); higher = more stable; sorted into four equal gates, so the index is relative within each strain
conditionSummary: doa10∆
The reader will find reported protein stability index values listed item by item below.

>  <sequenceContent>
FDALRSLDDNSTSLEKQ [YJL041W/NSP1]

>  <protein stability index>
2.99

$$$$

Prompt: Quick one: protein stability index of KQSGFGGQTKPVFHKKA [RPL42A] ?
Completion: 2.74

Prompt: Also check FGATTNDDKKTEPDKPA [YJL041W/NSP1]
Completion: 1.55

Prompt: Also check NMNLNPQMFLNQQAQAR [GAL11]
Completion: 1.92

Prompt: Also check DEEGIFSRFVDQFIRHV [YCG1]
Completion: 2.98

Prompt: Also check LYAERVQDRGLSAVAQA [RPS3]
Completion: 3.09

Prompt: Also check NAASGSNSNVTNPSSIF [YOR098C/NUP1]
Completion: 2.83

Prompt: Also check ILVFQVSMKANKYQIKK [RPL25]
Completion: 1.93

Prompt: Also check ASILLALTQMDQDKVNF [RPB3]
Completion: 3.18

Prompt: Also check QKSVSLLSSESNIPTLI [YDL116W/NUP84]
Completion: 2.73

Prompt: Also check FNTNSSFTPSTVPNINF [YOR098C/NUP1]
Completion: 2.48

Prompt: Also check TIANSIILHFANFGEIL [YMR153W/NUP53]
Completion: 2.15

Prompt: Also check DEKNKNNNEDNENNNNS [MED2]
Completion: 3.11

Prompt: Also check IKLDIVVGQNQLIDQFE [SNF5]
Completion: 1.88

Prompt: Also check FQETLDSTVVYPLPKFP [MED8]
Completion: 3.05

====

methodSummary: protein stability index of a GFP-peptide fusion (yeast GPS) (PSI 1-4); higher = more stable; sorted into four equal gates, so the index is relative within each strain
conditionSummary: ubr1∆
recordedEndpoint: protein stability index

Example entries and their recorded answers appear below.
>  <sequenceContent>
RLGLIPLQSMDIEQLEY [RPB3]

>  <protein stability index>
2.72

$$$$
>  <sequenceContent>
CKQFPKLSCIQLNCIDT [SRB8]

>  <protein stability index>
1.66

$$$$
>  <sequenceContent>
KVVTKKYCEIMGDNSQL [SNF2]

>  <protein stability index>
2.98

$$$$
>  <sequenceContent>
TYNMIDAAAEKRNGDEV [ARP7]

>  <protein stability index>
3.18

$$$$
>  <sequenceContent>
KNMFEKKASKVTVDADI [ISW2]

>  <protein stability index>
2.77

$$$$
>  <sequenceContent>
ALNNAIPGGPKFEPLYP [PRP8]

>  <protein stability index>
3.06

$$$$

Prompt: Quick one: protein stability index of GINKIPPKPRKVLQLLR [RPL7A] ?
Completion: 3.15

Prompt: Also check SSFVRQELAKSIRSRRP [PRE1]
Completion: 2.12

Prompt: Also check KIAHGTTTLAFRFQGGI [PRE2]
Completion: 3.1

Prompt: Also check FMRNGLLEGLNEKIEKR [UBP6]
Completion: 3.55

====

methodSummary: protein stability index of a GFP-peptide fusion (yeast GPS) (PSI 1-4); higher = more stable; sorted into four equal gates, so the index is relative within each strain
conditionSummary: san1∆
# protein stability index binned as LOW: < 2; MEDIUM: ≥ 2 and < 3; HIGH: ≥ 3

Here's what some known entries look like.
>  <sequenceContent>
KKISSFKSLIDEDLLDT [YGL172W/NUP49]

>  <classLabel>
HIGH

$$$$
>  <sequenceContent>
PKNQQYRAFGSIWQVKD [MED7]

>  <classLabel>
MEDIUM

$$$$
>  <sequenceContent>
SKLKKETASFIPTKESL [YIL149C/MLP2]

>  <classLabel>
MEDIUM

$$$$
>  <sequenceContent>
IDEIDAIGTKRYDSNSG [RPT2]

>  <classLabel>
MEDIUM

$$$$
>  <sequenceContent>
KNFENGPKKNVFYAPNV [RPC34]

>  <classLabel>
MEDIUM

$$$$

Prompt: # bin label for VGIDTHTATDIYQTLIA [SNF2]
Completion: LOW

Prompt: Also check LHNIWSNGLLSIVLLLL [YML103C/NUP188]
Completion: LOW

Prompt: Also check RETLVKTWEKVTLDFGN [SMC2]
Completion: LOW

Prompt: Also check DKLICSIDPPGCVDIDD [DIS3]
Completion: MEDIUM

Prompt: Also check LVGRLRKCETQKQWDDI [YCS4]
Completion: LOW

Prompt: Also check LLGNCYSLRLINKEIFH [SRB8]
Completion: LOW

Prompt: Also check SLDIRHDFIKGLIMLNL [NUT1]
Completion: LOW

Prompt: Also check AGQNATVAVMSYSGYDI [RET1]
Completion: LOW

====

The reader will find reported protein stability index values listed item by item below.
methodSummary: protein stability index of a GFP-peptide fusion (yeast GPS) (PSI 1-4); higher = more stable; sorted into four equal gates, so the index is relative within each strain
conditionSummary: doa10∆
Keep the answer to the number alone.

Example entries and their recorded answers appear below.
>  <sequenceContent>
NTVVGISGDISDMQHIE [PRE4]

>  <protein stability index>
2.94

$$$$
>  <sequenceContent>
NLLQISAAELERLDKDK [SNF5]

>  <protein stability index>
2.5

$$$$
>  <sequenceContent>
PLLSLDVTPISMFGSDQ [RPN4]

>  <protein stability index>
2.75

$$$$

Prompt: Quick one: protein stability index of NQSTIYEDEELSRAEYD [LIN1] ?
Completion: 3.12

Prompt: Also check YSLRLINKEIFHHWLVE [SRB8]
Completion: 1.75

Prompt: Also check GRRLSMLASQANGGSTI [DSN1]
Completion: 2.1

Prompt: Also check HDTLNNEIANSIIQSKQ [BRR2]
Completion: 2.76

Prompt: Also check PLLYNSLCTVWKPNPSY [SRB5]
Completion: 1.99

Prompt: Also check NSINKTTVPFKESDDPS [POP1]
Completion: 2.5

Prompt: Also check EIEQLDQYIQKQVQISH [YGL172W/NUP49]
Completion: 2.91

Prompt: Also check DSNYKWDLSVEDALYLG [PRE2]
Completion: 3.34

Prompt: Also check EIQRTMLELLNQLDGFD [RPT2]
Completion: 2.83

Prompt: Also check TLPEKKQFDSIFNSNKA [SIR4]
Completion: 2.71

Prompt: Also check LGQYVQAHTLYNSVRPF [PRE10]
Completion: 2.74

Prompt: Also check TDLIREKTMMTFGKPEE [YCS4]
Completion: 3.14

Prompt: Also check IELSDGSTFKVNQEFIF [YJL039C/NUP192]
Completion: 3.23

Prompt: Also check LQSNSKLASTLEKISSS [SMC4]
Completion: 2.79

Prompt: Also check DSQDYILSINAIDYEPE [SMC1]
Completion: 3.25

Prompt: Also check SVFDATSDPVMHKQLAY [RPN1]
Completion: 2.28

Prompt: Also check MTIPHMKYAVSKTSENK [SIR2]
Completion: 3.14

Prompt: Also check LKTADNRDRSFQLLEPL [PGD1]
Completion: 3.29

====

methodSummary: protein stability index of a GFP-peptide fusion (yeast GPS) (PSI 1-4); higher = more stable; sorted into four equal gates, so the index is relative within each strain
conditionSummary: doa10∆
Parameter threshold = 3. Response is Met when protein stability index meets or exceeds it, else Not met.

>  <sequenceContent>
GDPFDYKAQADTFYMNV [RPB3]

>  <classLabel>
Met

$$$$

Prompt: Threshold query (protein stability index >= 3) on IVSEDHIILDTISECNL [MED1]
Completion: Not met

Prompt: Also check FNYNIFMHDPSVFYNIA [SIR2]
Completion: Not met

Prompt: Also check PLPPRIDPSVTMMTVEE [RPT1]
Completion: Not met

Prompt: Also check TKKKSKFMTNSTAFVPT [ARP9]
Completion: Not met

Prompt: Also check IVEADEKKGIVQASVTS [RET1]
Completion: Not met

Prompt: Also check QIYTQRAYMRPLGVILT [SCL1]
Completion: Not met

Prompt: Also check KNLNPASSSPSSTDFST [ECM29]
Completion: Met

Prompt: Also check IPSLANNGNNSTSIQYH [POP6]
Completion: Not met

Prompt: Also check YSPNTLGHPDNYIPGNP [COB]
Completion: Not met

Prompt: Also check NRLEKEQSVKTQNSRHY [LIN1]
Completion: Not met

Prompt: Also check LNTLLVTSADSNLKISL [SWI1]
Completion: Not met

Prompt: Also check HVVTREKGPQVCAKLFG [RPO21]
Completion: Met

Prompt: Also check IVGQKNLNRAFNGDQVI [DIS3]
Completion: Met

====

methodSummary: protein stability index of a GFP-peptide fusion (yeast GPS) (PSI 1-4); higher = more stable; sorted into four equal gates, so the index is relative within each strain
conditionSummary: san1∆
recordedEndpoint: protein stability index
Keep the answer to the number alone.

>  <sequenceContent>
GNSFHLMRELLKMMKLI [PRP8]

>  <recordedMeasurement>
2.6

$$$$
>  <sequenceContent>
YDDFIYLSDLKQFFQMT [PCI8]

>  <recordedMeasurement>
2.61

$$$$
>  <sequenceContent>
SVVKKEDNKYAIAGNST [RGR1]

>  <recordedMeasurement>
3.02

$$$$

Prompt: Quick one: protein stability index of GAIIGWTRGTGLMSANN [FAS2] ?
Completion: 3.08

Prompt: Also check IKIEPSADDDVNNGNIP [SIR3]
Completion: 2.58

Prompt: Also check LSISVPSDVNIDVMKSQ [SNU114]
Completion: 2.57

Prompt: Also check FEFQYLTIGVKFFMKHG [SRB5]
Completion: 1.21

Prompt: Also check TAFNKTRGPFHFRAPSR [RPL16B]
Completion: 2.59

Prompt: Also check FDALRSLDDNSTSLEKQ [YJL041W/NSP1]
Completion: 3

Prompt: Also check LSTTPTKSNRRVSHSDT [SIR4]
Completion: 3.33
